- target or system: HSP47 (Homo sapiens (Human), UniProt P50454)
- Sequence (P50454 19-418, species assumed): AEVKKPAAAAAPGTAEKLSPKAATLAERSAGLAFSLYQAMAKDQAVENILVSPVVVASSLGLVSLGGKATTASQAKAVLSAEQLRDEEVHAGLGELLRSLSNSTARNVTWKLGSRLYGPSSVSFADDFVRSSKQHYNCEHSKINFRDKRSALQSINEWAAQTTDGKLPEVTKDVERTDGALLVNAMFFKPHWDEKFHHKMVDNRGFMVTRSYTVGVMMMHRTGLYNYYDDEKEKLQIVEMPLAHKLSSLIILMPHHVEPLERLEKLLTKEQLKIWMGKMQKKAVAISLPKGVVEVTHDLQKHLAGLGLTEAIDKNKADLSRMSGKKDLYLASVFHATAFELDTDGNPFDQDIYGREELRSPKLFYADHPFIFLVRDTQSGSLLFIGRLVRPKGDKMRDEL
- method summary: Evaluation of HSP47 activity (inhibition of collagen fibril formation, 340 nm)
- condition parameters: HSP47 9.45 μg/ml, collagen fibril formation, test compound 100 μM to 1 μM
pEC50: −log10 of the molar value.
reported property: pEC50

[[record]]
chemical_structure = "CCc1oc2cccc(C)c2c1C(=O)c1cc(Br)c(O)c(Br)c1"
reported_property = "pEC50"
result_number = 4.15

[[record]]
chemical_structure = "CCc1oc2c(C)cccc2c1C(=O)c1cc(I)c(O)c(I)c1"
reported_property = "pEC50"
result_number = 4.31

[[record]]
chemical_structure = "CCc1ccc2oc(CC)c(C(=O)c3cc(Br)c(O)c(Br)c3)c2c1"
reported_property = "pEC50"
result_number = 4.31

[[record]]
chemical_structure = "CCc1oc2c(Br)cccc2c1C(=O)c1cc(Br)c(O)c(Br)c1"
reported_property = "pEC50"
result_number = 4.09

[[record]]
chemical_structure = "CCc1oc2cccc(F)c2c1C(=O)c1cc(Br)c(O)c(Br)c1"
reported_property = "pEC50"
result_number = 3.98


1 = CCc1oc2ccc(C)cc2c1C(=O)c1cc(Br)c(O)c(Br)c1
2 = CCc1oc2c(CC)cccc2c1C(=O)c1cc(Br)c(O)c(Br)c1
Given 1 and given 2 , which shows the smaller recorded pEC50? Please respond with the label that marks your chosen entry. 1
